- system tested: DPP-IV (Homo sapiens, UniProt P27487)
- Construct: purchased Cayman Chemical 700210
- Sequence (P27487 whole entry): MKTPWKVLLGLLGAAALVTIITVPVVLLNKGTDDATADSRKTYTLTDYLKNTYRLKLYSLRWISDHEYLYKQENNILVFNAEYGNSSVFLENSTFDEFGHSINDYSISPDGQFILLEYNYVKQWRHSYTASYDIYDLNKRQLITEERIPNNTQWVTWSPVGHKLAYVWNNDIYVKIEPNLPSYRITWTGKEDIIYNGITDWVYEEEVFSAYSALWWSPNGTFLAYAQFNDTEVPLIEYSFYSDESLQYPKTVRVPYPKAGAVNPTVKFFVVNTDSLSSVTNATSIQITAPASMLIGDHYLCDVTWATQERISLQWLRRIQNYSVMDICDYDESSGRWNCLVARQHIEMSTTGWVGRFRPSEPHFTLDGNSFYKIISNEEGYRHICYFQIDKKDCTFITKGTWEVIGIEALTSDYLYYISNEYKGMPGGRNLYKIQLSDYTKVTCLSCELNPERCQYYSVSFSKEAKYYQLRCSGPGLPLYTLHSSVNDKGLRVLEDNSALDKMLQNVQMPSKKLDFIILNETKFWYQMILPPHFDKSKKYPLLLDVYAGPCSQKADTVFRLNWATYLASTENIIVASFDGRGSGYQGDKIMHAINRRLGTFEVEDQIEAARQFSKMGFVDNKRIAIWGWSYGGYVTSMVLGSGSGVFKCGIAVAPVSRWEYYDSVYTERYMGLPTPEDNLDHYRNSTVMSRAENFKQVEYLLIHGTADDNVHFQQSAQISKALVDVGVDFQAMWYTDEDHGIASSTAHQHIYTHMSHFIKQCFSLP
- protocol summary: DPP-IV inhibitory activity in vitro (Cayman DPP (IV) inhibitor screening assay kit)
- Assay type: biochemical
- details: substrate Gly-Pro-AMC, 37 °C, 30 min, fluorescence 355/460 nm; dose–response range from 0.52 to 3.65 μM; drc package in R; read-out: IC50, DPP-IV inhibition
pIC50: −log10 of the molar value. No end group written: not given here.

sequence input	pIC50
LRGFGNPPT	5.81
